test system: HT-29; experiment: NCI tumour cell line growth inhibition, 48 h
Activity calls are given as the source filed them. No stated cut-off is given here; in the data, active = GI50 up to about 1.1 µM and inactive = higher.
Respond only with the outcome that fits, drawn from yes (active), no (inactive)

In this assay, the call recorded for C=C1CC(OC)(C(O)C(=O)N[C@H]2OCO[C@H]3C2O[C@H](C[C@@H](COC)OC)C(C)(C)C3OC)O[C@H](C)[C@@H]1C (some centres undefined) was what? yes

Returns: the outcome recorded for N#Cc1cc([N+](=O)[O-])ccc1NC(=O)/C(=N/N)C(C(=O)c1ccc(Cl)c(Cl)c1)C1OC(=O)c2ccccc21 (centres undefined) in this assay. no

Per the assay record, what outcome was assigned to O=c1cc(N2CCCC2)[nH]c(=O)n1Cc1ccccc1 ? no

Please indicate how the test categorized NC(=O)N=C(N(Cc1ccccc1)Cc1ccccc1)N(Cc1ccccc1)Cc1ccccc1 . no

Hi, sorry to bother you, what did the test record for COC1=C(OC)C(=O)C(Cc2c(C)nc3sc(C)cn23)=C(C)C1=O ? no

Please indicate how the test categorized CC(=O)C(I(OS(=O)(=O)c1ccc(C)cc1)c1ccccc1)=P(c1ccccc1)(c1ccccc1)c1ccccc1 . no

Short answer needed: outcome of this test for CC(=O)O[C@@H]1C=C(C)[C@H](CBr)O[C@@]2(C)CC[C@H](Br)C(C)(C)[C@H]12 ? no

Assay outcome for O=c1oc2ccccc2cc1-c1csc(Nc2ccc(F)cc2)n1 : what was it? no

Answer briefly: the call reported for O=C(N/N=C(COc1ccccc1Cl)\N=C\c1ccncc1)c1ccncc1 in this assay. no

---

test system: NCI-H23; assay: NCI tumour cell line growth inhibition, 48 h
Active and inactive are the calls of the source. No stated cut-off is given here; in the data, active = GI50 up to about 1.1 µM and inactive = higher.
For each entry below, report its GI50 value.

Provide each entry's GI50 from the list below.
1. CCOC(=O)C(=O)Nc1c(N(CC)CC)n2ccccc2nc1=O
2. CC(OC(C)(C)C)[C@H](NC(=O)OC(C)(C)C)C(=O)O (stereo partly drawn)
3. O=P(CCOc1ccccc1OCCP(=O)(c1ccccc1)c1ccc2c(c1)OCCOCCOCCOCCO2)(c1ccccc1)c1ccc2c(c1)OCCOCCOCCOCCO2 (stereo not drawn)
4. Brc1ccc(N2C[N+](c3ccc(Br)cc3)=NC(c3ccccc3)=N2)cc1.[O-][Cl+3]([O-])([O-])[O-]
5. NS(=O)(=O)c1cc(S(N)(=O)=O)c(NC(=O)Nc2ccc(Cl)c(Cl)c2)c(Cl)c1Cl
6. Cc1ccc(NC(=O)CC2C(=O)Nc3ccccc3S2(=O)=O)cc1C (stereo not drawn)

["> 100 µM (inactive)", "> 100 µM (inactive)", "> 100 µM (inactive)", "46.9 µM (inactive)", "> 100 µM (inactive)", "> 100 µM (inactive)"]

Batch request: GI50 for each of the following compounds.
1. CCC(=O)O[C@H]1CC[C@H]2[C@@H]3CCC4=C/C(=N/NC(=O)c5cccc6c(=O)c7ccccc7[nH]c56)CC[C@]4(C)[C@H]3CC[C@]12C
2. c1ccc(C2CC(N3CCOCC3)=Nc3ccccc3N2)cc1 (stereo not drawn)

1: > 25 µM (inactive); 2: > 100 µM (inactive)

---

Give GI50 for every item shown.
system: EKVX; experiment: NCI tumour cell line growth inhibition, 48 h
Active and inactive are the calls of the source. Cut-off read from the data, not from the text of the source: active = GI50 up to about 1.1 µM and inactive = higher.

* COC1CC(C)([N+](=O)[O-])C(O)C(C)O1 (stereo unspecified) | > 100 µM (inactive)
* O=c1[nH]c2c(Nc3c4ccccc4nc4ccccc34)c([N+](=O)[O-])c(Nc3c4ccccc4nc4ccccc34)c([N+](=O)[O-])c2[nH]1 | 1.82 µM (inactive)
* COC(=O)c1c[nH]cc1CCc1c[nH]cc1C(=O)OC | > 100 µM (inactive)
* C=CCn1c(=O)ccn(COCCO)c1=O | > 100 µM (inactive)
* COc1ccc(O)c(C#N)c1C#N | > 100 µM (inactive)

Give GI50 for each of the items listed below.
1. CON(C)C(=O)C(Cc1ccccc1)NC(=O)OCc1ccccc1 (stereo unspecified)
2. COc1ccc(/C=C2\CCC(C)/C(=C\c3ccc(OC)c(OC)c3)C2=O)cc1OC (stereo unspecified)
3. CCOC(=O)Cc1nc2ccccc2s1
4. NC(=O)C[S+]([O-])CC(N)C(=O)O (stereo unspecified)
5. CC1C2C=CC1C(c1c3ccc(=O)c(O)c-3oc3c(O)c(O)ccc13)C2C(=O)O (stereo unspecified)

["> 100 µM (inactive)", "2.13 µM (inactive)", "39.4 µM (inactive)", "> 100 µM (inactive)", "50.9 µM (inactive)"]

Tell me GI50 reported for CSC1=NC(C(N)=O)C(N)N1C (stereo unspecified) > 100 µM (inactive)
